Taken from ChEMBL document CHEMBL4814032.

Test system: U-937
Experiment: Cytotoxicity against human U-937 cells by MTT assay
Assay type: functional, cell-based
pIC50: −log10 of the molar value.
Given measured pIC50, output y if it is greater than or equal to 5 and n if not.

# count of solved cases: 3
>>> class_label("CCCN1CC(c2ccc(OC)c(OC)c2)=C(c2cn(C)c3ccccc23)C1=O")
"y"
>>> class_label("COc1ccc(C2=C(c3cn(C)c4ccccc34)C(=O)OC2)cc1OC")
"y"
>>> class_label("CCCN1CC(c2ccc(OC)c(OC)c2)=C(c2c[nH]c3ccccc23)C1=O")
"n"

Answer whether pIC50 of `CCCN1CC(c2ccc(OC)c(OC)c2)=C(c2cn(C(=O)OCC)c3ccccc23)C1=O` is greater than or equal to 5.
y

Answer whether pIC50 of `CCOC(=O)n1cc(C2=C(c3ccc(OC)c(OC)c3)COC2=O)c2ccccc21` is greater than or equal to 5.
y
